The entries below are paired with their reported TGI.
Tested on: RPMI-8226 leukemia
Assay: NCI tumour cell line growth inhibition, 48 h

Below: 8 molecules and their reported TGI.
So, "Cc1c2cnccc2c(C)c2c1c1cc(C3OCCCO3)ccc1n2C" ? Its TGI was 1.28 µM

// sample "CC(C)=CCN=C(N)N" , its TGI was 99.7 µM

GET /value?item= "FC(F)(F)c1ccc(-c2nc(-c3nc4cc(Cl)c(Cl)cc4[nH]3)c3ccccn23)cc1" &field=TGI returns > 100 µM

Lookup result for "C=C1C(=O)O[C@H]2[C@H]1CC/C(CNC(=O)/C=C/c1ccc(Br)cc1)=C\CC[C@@]1(C)O[C@@H]21" ; measured TGI: 3.26 µM

// sample "Cc1ccc(C(=O)O/N=C2/CCCC/C2=C\c2ccccc2)cc1" , its TGI was > 100 µM

Recorded TGI (molecule "OCCOc1ccc(-c2cc(-c3ccccn3)nc(-c3ccccn3)c2)cc1" ): > 96.7 µM

The recorded TGI for entry "O=C(CSCC(=O)N/N=C/c1cc(I)cc(I)c1O)N/N=C/c1cc(I)cc(I)c1O" equals 61.5 µM

# TGI (molecule: "O=c1c2ccccc2oc2nc3n(c(=O)c12)CCCS3" ) is > 100 µM

Proceeding to the next molecule to report its TGI.
Reported TGI ( "COc1ccc(/C=C2\CN(C)Cc3c2nc(N)nc3-c2ccc(OC)cc2)cc1" ) = > 100 µM

###

// log10 TGI lookup, one value per entry
System: RXF 393 renal
Experiment: NCI tumour cell line growth inhibition, 48 h
In plain terms, each number is the log10 of measured TGI in µM.

Entry "COc1ccc(Cn2c(C)nc3c2C(=O)c2ccccc2C3=O)cc1" — recorded log10 TGI = 1.80

// sample "CCCN(CCC)CCCNCc1cc(I)cc(C)c1O" , its log10 TGI was 1.37

Reported log10 TGI of C=CCNC(=S)Nc1sc2c(c1C(=O)OCC)CC(C)CC2 (stereo unspecified) : 1.92

Looking up "Cc1c2cnccc2c(C)c2c1c1cc(C3OCCCO3)ccc1n2C" , I found its log10 TGI recorded as -0.04

Given item "CN(C)CCNc1ccc(C(=O)NCCCN(C)CCCNC(=O)c2ccc(NCCN(C)C)c3c(=O)c4ccccc4[nH]c23)c2[nH]c3ccccc3c(=O)c12" , the value recorded as its log10 TGI is -0.04

Per the records, this molecule ( "CC(=O)C1=C(O)C=C2Oc3c(C(=O)/C=C/c4cc(C(F)(F)F)cc(C(F)(F)F)c4)c(O)c(C)c(O)c3[C@]2(C)C1=O" ) has log10 TGI equal to 0.49

Others:
Lab book: log10 TGI of "COc1ccc(C#Cc2ccccc2C#CCCCCO)cc1" noted as 1.53

Lab note: measured log10 TGI of "COC1=CC(c2ccc[nH]2)=N/C1=C\c1[nH]c(C)c(C(=O)OCc2ccccc2)c1C" was 0.15

###

System: MALME-3M melanoma
Experiment: NCI tumour cell line growth inhibition, 48 h
property name: TGI

Worked examples follow.
molecule O=C1CSC2(CC(/C=C/c3ccccc3)=NN2c2cccc(S(=O)(=O)O)c2)N1c1nc2ccccc2s1 (stereo not drawn) , TGI observed: > 100 µM

// "CC1=NN(C(=O)c2ccccc2O)C(=O)/C1=C/c1ccc([N+](=O)[O-])cc1" : TGI value = > 100 µM

Next molecule, TGI to be filled in.
In plain terms, "Nc1nc(CCC(=O)Nc2cccc(C(F)(F)F)c2)cc(-c2cccc3ccccc23)n1" has a documented TGI of > 100 µM

###

Test system: MALME-3M melanoma
Experiment: NCI tumour cell line growth inhibition, 48 h
Entries and their measured TGI follow.

# count of solved cases: 3
Consider Nc1ccn(C2OC(CO)C(O)C2F)c(=O)n1 (stereo not drawn) . Its measured TGI is > 5000 µM

Kindly note the recorded TGI for C[N+]1(C)CCCC1C(=O)[O-] (stereo not drawn) , which is > 100 µM

Entry CC12CC3C(CC1SCC(=O)O2)C3(C)C (stereo not drawn) , TGI reported as > 100 µM

Others:
The reported value for "O=c1cnn(C/C=C\CO)c(=O)[nH]1" in terms of TGI is > 100 µM

Record "Cc1nc2sccn2c1/C=C1/C(=O)Nc2ccccc21" . Reported TGI: > 100 µM

# TGI of "COc1cc(/C(Cl)=C/C=C/C(=O)c2c(C)[n+]([O-])c3ccc(Cl)cc3[n+]2[O-])cc(OC)c1OC" = 18.5 µM

Per the record, COc1ccc(S(=O)(=O)NC(C)C(=O)O)cc1 (stereo not drawn) has TGI of > 100 µM

The molecule identified as "O=C(/C=C/c1ccc(B(O)O)cc1)/C=C/c1ccc(B(O)O)cc1" registered its TGI at 20.9 µM

Please fill in: TGI reported for "Cc1ccc(S(=O)(=O)c2scc(-c3ccccc3)c2C)cc1" = > 100 µM

###

System: MALME-3M melanoma
Assay: NCI tumour cell line growth inhibition, 48 h
Entries and their TGI values follow.

The cases that follow already have their TGI on record.
So for C=C(C)C(=O)CC[C@@H](C)[C@H]1[C@@H](OC2OC(CO)C(O)C(O)C2O)C[C@@]2(C)[C@@H]3C[C@H](O)C4C(C)(C)[C@@H](OC5OC(CO)C(O)C(O)C5O)CC[C@@]45C[C@@]35CC[C@]12C (some centres undefined) , the logged TGI turned out to be > 100 µM

The measured TGI associated with OCC1OC(c2scc3c(=S)nc[nH]c23)C(O)C1O (centres undefined) reads > 72.9 µM

Data point: CCC(C)[C@H](NC(=O)[C@H](Cc1ccccc1)NC(=O)N(CC)c1ccccc1)C(=O)N[C@@H](CC(C)C)C(=O)OC (some centres undefined) ; TGI = > 100 µM

Now consider the entry below.
Record "CN(C)c1nc2sc3c(c2c(=O)o1)CCCC3" , field TGI: > 100 µM

###

Quick list: TGI per entry.
Tested on: U251 CNS
Assay: NCI tumour cell line growth inhibition, 48 h

TGI measured on "C#CCC[C@@H]1O[C@@]1(C)CC/C=C(\C)CC/C=C/C=O" = 39.3 µM

Measured TGI of COc1c2c(c3c(c1C1OC(C)[C@@H](C)O1)CC(C)(C)O3)C(=O)c1ccccc1C2=O (stereo partly drawn) : > 100 µM

TGI measured on "COc1ccc(-c2nc(N)c(C#N)c3c2CCS(=O)(=O)c2ccc(C)cc2-3)cc1OC" = > 100 µM

The reported TGI of the compound CN1C(=O)c2c(ccc3c2OCO3)C2C(O)Cc3cc4c(cc3C21)OCO4 (stereo not drawn) was > 100 µM

# TGI (compound: "O=c1cc(CNC2CCCC2)[nH]c(=O)[nH]1" ) is > 100 µM

Others:
For record CC1CC2C3CC(F)C4=CC(=O)C=CC4(C)C3(F)C(O)CC2(C)C1(O)C(=O)COC(=O)C(C)(C)C (stereo not drawn) the listed TGI is > 100 µM

Looking up "O=C(O)c1ccccc1Cc1ccco1" , I see its TGI listed as > 100 µM

Given item Nc1ccn(C2OC(CO)C(O)C2F)c(=O)n1 (stereo not drawn) , the value recorded as its TGI is > 5000 µM

###

Test system: HT29 colon
Assay: NCI tumour cell line growth inhibition, 48 h
property name: TGI

Observe how each entry below is paired with its result.
Kindly note the recorded TGI for "COc1ccc2oc(=N)c(C(=O)Nc3cccc4ccccc34)cc2c1" , which is > 100 µM

molecule "C=CC(=O)Nc1ccc(Nc2nccc(-c3ccc(N4CCCC4)c(C#N)c3)n2)cc1" , TGI observed: > 25 µM

Reported TGI of COCOc1ccc(C(=O)C(C)c2ccc(OCOC)cc2OCOC)c(O)c1 (stereo not given) : > 100 µM

The molecule listed as "Cc1cccc(C(=O)c2cccc3ccccc23)c1C(=O)O" shows TGI equal to > 100 µM

Note: attention shifts to another entry.
Entry under test: "O=C1c2ccccc2C(=O)N1n1c(Cc2ccccc2)n[nH]c1=O" . Its TGI was > 100 µM

###

Test system: KM12 colon
Assay: NCI tumour cell line growth inhibition, 48 h
property name: TGI

Consider the following illustrative entries.
Entry C[N+]1(C)CCCC1C(=O)[O-] (stereo not given) , TGI reported as > 100 µM

The recorded TGI for entry "C=CC(=O)Nc1ccc(Nc2nccc(-c3ccc(N4CCCC4)c(C#N)c3)n2)cc1" equals > 25 µM

Noted for Nc1nc(Cl)cc(NCC2(O)CC(CO)C2)n1 (stereo not given) : its TGI reads > 100 µM

Further cases:
Reported TGI for "N=C(c1ccccc1)N(c1ccccc1)c1ccccc1" was > 100 µM

According to the records, this compound "COc1ccc(-c2[nH]ncc2-c2cc3c(c(OC)c2)OCC(=O)N3)cc1" displays TGI of 32.8 µM

TGI measured on "Cc1ccc(S(=O)(=O)N/N=C/c2oc(-c3cccc([N+](=O)[O-])c3)c(-c3cccc([N+](=O)[O-])c3)c2[N+](=O)[O-])cc1" = > 100 µM

Reported TGI for O=C1NC(N/N=C\C(O)C(O)C(O)CO)=N/C1=C/c1ccccc1 (stereo not given) was > 100 µM

Looking up O=c1[nH]c(=O)n(C2CC(O)C(CO)O2)cc1I (stereo not given) , I found its TGI recorded as > 100 µM

"O=C(O)[C@H]1[C@@H](C2CCCCC2)O[C@@H](C2CCCCC2)O[C@H]1C(F)(F)F" yielded TGI of 46.4 µM

// "O=[N+]([O-])c1ccc(Nc2ccccc2-c2ccccc2)c2nonc12" : TGI value = 32.5 µM
